- measurementDescription: In vivo plasma levels of 73
- conditions: mouse, ip, 1 h after 10 mg Kg-1 intraperitoneal, mean ±SD
reportedProperty: concentration at 1 h (ng/mL)
Note: unit ng/mL is implicit; provide only the numeric part.

Name the recorded concentration at 1 h of the compound listed here: CC(C)(C)CNC(=S)Nc1ccc2c(c1)CCN2Cc1ccc(N=O)cc1 12.3

----------
- measurementDescription: In vivo plasma levels of 73
- conditions: mouse, ip, 4 h after 10 mg Kg-1 intraperitoneal, mean ±SD
reportedProperty: concentration at 4 h (ng/mL)
Note: unit ng/mL is implicit; provide only the numeric part.

Name the recorded concentration at 4 h of the molecule listed here: CC(C)(C)CNC(=S)Nc1ccc2c(c1)CCN2Cc1ccc(N=O)cc1 [compound 73] 1.1

----------
- measurementDescription: In vivo plasma levels of 73
- conditions: mouse, ip, 0.5 h after 10 mg Kg-1 intraperitoneal, mean ±SD
reportedProperty: concentration at 0.5 h (ng/mL)
Note: unit ng/mL is implicit; provide only the numeric part.

Name the recorded concentration at 0.5 h of the compound listed here: CC(C)(C)CNC(=S)Nc1ccc2c(c1)CCN2Cc1ccc(N=O)cc1 15.4

----------
- measurementDescription: In vivo plasma levels of 73
- conditions: mouse, ip, 2 h after 10 mg Kg-1 intraperitoneal, mean ±SD
reportedProperty: concentration at 2 h (ng/mL)
Note: unit ng/mL is implicit; provide only the numeric part.

Name the recorded concentration at 2 h of the compound listed here: CC(C)(C)CNC(=S)Nc1ccc2c(c1)CCN2Cc1ccc(N=O)cc1 [compound 73] 10.6
